Source of measurements: the supplement of paper PMC6522484

test system: SW480; experiment: TCF/Wnt firefly luciferase reporter signal relative to plate median (fraction of plate median); higher = higher Wnt reporter signal; details: 5 µM; treatment time 24 h; reporter: 7TFP
Below is a list of entries, each paired with its recorded TCF/Wnt firefly luciferase reporter signal value.

Guide cases for TCF/Wnt firefly luciferase reporter signal, answers given:
CHEMICAL STRUCTURE	TGT	REPORTED MEASUREMENT
Cc1cc(=O)oc2cc(O)cc(O)c12	SW480	0.975
CN1CCN(CC/C=C2/c3ccccc3Sc3ccc(S(=O)(=O)N(C)C)cc32)CC1	SW480	0.983
COc1ccc(/C=C/C(=O)O)cc1OC	SW480	0.984

Let us examine a further case.
Please fill in: TCF/Wnt firefly luciferase reporter signal reported for C[C@@H]1[C@H](O)[C@@H](C)/C=C/C=C/C=C/C=C/C=C/C=C/C=C/[C@H](O[C@@H]2O[C@H](C)[C@@H](O)[C@H](N)[C@@H]2O)C[C@@H]2O[C@](O)(C[C@@H](O)C[C@@H](O)[C@H](O)CC[C@@H](O)C[C@@H](O)CC(=O)O[C@H]1C)C[C@H](O)[C@H]2C(=O)O = 1.01

* * *

system: DLD1; assay: cell viability (CellTiter-Glo) relative to plate median (fraction of plate median); higher = more viable cells; conditions: 5 µM; treatment time 24 h; reporter: 7TFP
Below is a list of entries, each paired with its recorded cell viability value.
Form rule: numeric answer, no unit written next to it.

> print(dat)
                         chemical.structure   tgt   readout.label  reported.measurement
1              CCCN(CCC)CCc1cccc2c1CC(=O)N2  DLD1  cell viability                  1.02
2  O=C(O[C@@H]1Cc2c(O)cc(O)cc2O[C@@H]1c1ccc(O)c(O)c1)c1cc(O)c(O)c(O)c1  DLD1  cell viability                 0.946
3                Cc1ccc2c(Cl)cc(Cl)c(O)c2n1  DLD1  cell viability                  1.01

Let us examine a further case.
Please fill in: cell viability reported for C[C@]12C=CC(=O)C=C1CC[C@@H]1[C@@H]2[C@@H](O)C[C@@]2(C)[C@H]1CC[C@]2(O)C(=O)COP(=O)(O)O = 1.04

* * *

test system: SW480; experiment: TCF/Wnt firefly luciferase reporter signal relative to plate median (fraction of plate median); higher = higher Wnt reporter signal; conditions: 5 µM; treatment time 24 h; reporter: 7TFP
Below is a list of entries, each paired with its recorded TCF/Wnt firefly luciferase reporter signal value.
Form rule: numeric answer, no unit written next to it.

> print(dat)
                         chemical.structure  reported.measurement
1  CC(C)C[C@H](NC(=O)[C@@H]1CCCN1)C(=O)N1CCNC(=O)C1=O                  1.02
2  CC1=C(/C=C/C(C)=C/C=C/C(C)=C/C=C/C=C(C)/C=C/C=C(C)/C=C/C2=C(C)CCCC2(C)C)C(C)(C)CCC1                 0.983
3          CC(C)C[C@@H]1NC(=O)[C@H](C)NC1=O                 0.987

Please fill in: TCF/Wnt firefly luciferase reporter signal reported for Cn1nnnc1SCC1=C(C(=O)O)N2C(=O)[C@@H](NC(=O)[C@H](O)c3ccccc3)[C@H]2SC1 = 0.989

* * *

Below is a list of entries, each paired with its recorded cell viability value.
tested on: HCT116; test: cell viability (CellTiter-Glo) relative to plate median (fraction of plate median); higher = more viable cells; conditions: 5 µM; treatment time 24 h; reporter: TCF4/Wnt
Counter-ions that a name gives are not always drawn.
Form rule: numeric answer, no unit written next to it.

COMPOUND	cell viability
COC(=O)[C@H]1[C@H]2C[C@@H]3c4[nH]c5cc(OC)ccc5c4CCN3C[C@H]2C[C@@H](OC(=O)c2cc(OC)c(OC)c(OC)c2)[C@@H]1OC	1.02
O=C1c2ccccc2C(=O)c2c(O)c(O)cc(O)c21	0.96
COC(=O)C1=CO[C@@H](O[C@@H]2O[C@H](CO)[C@@H](O)[C@H](O)[C@H]2O)[C@H]2[C@@H]1C(=O)C[C@@H]2C	0.992
CCC1=C[C@@H]2CN(C1)Cc1c([nH]c3ccccc13)[C@@](C(=O)OC)(c1cc3c(cc1OC)N(C)[C@H]1[C@@](O)(C(=O)OC)[C@H](OC(C)=O)[C@]4(CC)C=CCN5CC[C@]31[C@@H]54)C2	0.544

Lab entry: HCT116 assay, compound CC(C)c1c(O)ccc2c1CC[C@H]1[C@@](C)(CO)CCC[C@]21C , cell viability = 1.03

Lab entry: HCT116 assay, compound COc1cc(O)c2c(=O)cc(-c3ccc(OC)c(-c4c(O)cc(O)c5c(=O)cc(-c6ccc(O)cc6)oc45)c3)oc2c1 [GINKGETIN, K salt] , cell viability = 0.899

* * *

test system: SW480; experiment: cell viability (CellTiter-Glo) relative to plate median (fraction of plate median); higher = more viable cells; settings: 5 µM; treatment time 24 h; reporter: 7TFP
Below is a list of entries, each paired with its recorded cell viability value.
Form rule: numeric answer, no unit written next to it.

> print(dat)
                                   compound   readout.label  reported.measurement
1  COC(=O)C1=CO[C@@H](O[C@@H]2O[C@H](CO)[C@@H](O)[C@H](O)[C@H]2O)[C@H]2[C@@H]1C(=O)C[C@@H]2C  cell viability                 0.982
2  COc1ccc(-c2cc(=O)c3c(O)c(OC)c(OC)c(OC)c3o2)cc1  cell viability                  1.02

Please fill in: cell viability reported for C=CCSSSCC=C = 0.99

Please fill in: cell viability reported for N[C@@H](C=O)[C@@H](O[C@@H]1O[C@H](C(=O)O)[C@@H](O)[C@H](O)[C@H]1O)[C@@H](O)[C@H](O)CO = 1

Please fill in: cell viability reported for CN(C)CCCN1c2ccccc2CCc2ccccc21 = 1.01

Please fill in: cell viability reported for CCOC(=O)C(=O)C1(C(=O)OCC)Oc2cc(OC)cc(OC)c2C(=O)C1c1ccccc1 (centres undefined) = 1.01

Please fill in: cell viability reported for CCCc1nc2c(C)cc(-c3nc4ccccc4n3C)cc2n1Cc1ccc(-c2ccccc2C(=O)O)cc1 = 1.01

Please fill in: cell viability reported for CC(C)=CCc1c2c(c3occ(-c4ccc(O)cc4)c(=O)c3c1O)C=CC(C)(C)O2 = 0.99

Please fill in: cell viability reported for C[C@@H]1C[C@H]2[C@@H]3CCC4=CC(=O)C=C[C@]4(C)[C@@]3(F)[C@@H](O)C[C@]2(C)[C@@]1(O)C(=O)COP(=O)(O)O = 1.01

* * *

test system: SW480; assay: TCF/Wnt firefly luciferase reporter signal relative to plate median (fraction of plate median); higher = higher Wnt reporter signal; conditions: 5 µM; treatment time 24 h; reporter: 7TFP
Below is a list of entries, each paired with its recorded TCF/Wnt firefly luciferase reporter signal value.
Form rule: numeric answer, no unit written next to it.

> print(dat)
                                   molecule  reported.measurement
1  CC(=O)C1=C(O)C=C2Oc3c(C(C)=O)c(O)c(C)c(O)c3C2(C)C1=O (stereo in doubt)                 0.973
2  O=c1[nH]c(=O)n([C@H]2C[C@H](O)[C@@H](CO)O2)cc1F                 0.971
3  COCC1=C(C(=O)OC(C)OC(=O)OC(C)C)N2C(=O)[C@@H](NC(=O)/C(=N\OC)c3csc(N)n3)[C@H]2SC1 (some centres undefined)                 0.999

Please fill in: TCF/Wnt firefly luciferase reporter signal reported for CCC(CCC(C)C1CCC2C3CCC4CC(O)CCC4(C)C3CCC12C)C(C)C (centres undefined) = 1.01

* * *

system: SW480; assay: cell viability (CellTiter-Glo) relative to plate median (fraction of plate median); higher = more viable cells; conditions: 5 µM; treatment time 24 h; reporter: 7TFP
READOUT LABEL: cell viability
Form rule: numeric answer, no unit written next to it.

> print(dat)
                                   compound    tgt   readout.label  reported.measurement
1                         Nc1ccc(C(=O)O)cc1  SW480  cell viability                 0.974
2                CN(C)CCN(Cc1cccs1)c1ccccn1  SW480  cell viability                     1
3  C#C[C@]1(OC(C)=O)CC[C@H]2[C@@H]3CCC4=CC(=O)CC[C@@H]4[C@H]3CC[C@@]21C  SW480  cell viability                 0.973
4  C[C@@H]1CC[C@H]2C(C(=O)O)=C[C@@H]3[C@@H](O)C(C)(C)C[C@@]132 [Pentalenic acid]  SW480  cell viability                  1.02
5  CC1(C)O[C@@H]2C[C@H]3[C@@H]4CCC5=CC(=O)C=C[C@]5(C)[C@H]4[C@@H](O)C[C@]3(C)[C@]2(C(=O)CO)O1  SW480  cell viability                 0.977
6  CC(=O)OCC(=O)[C@@]1(O)[C@H](C)C[C@H]2[C@@H]3CCC4=CC(=O)C=C[C@]4(C)[C@@]3(F)[C@@H](O)C[C@@]21C  SW480  cell viability                  1.02
7                    NCc1ccc(S(N)(=O)=O)cc1  SW480  cell viability                 0.991
8  Cc1onc(-c2ccccc2)c1C(=O)N[C@@H]1C(=O)N2[C@@H]1SC(C)(C)[C@@H]2C(=O)O  SW480  cell viability                 0.978

Lab entry: SW480 assay, compound Cc1ccsc1/C=C/C1=NCCCN1C , cell viability = 0.977

Lab entry: SW480 assay, compound O=C1O[C@H]([C@@H](O)CO)C(O)=C1O , cell viability = 1.01

Lab entry: SW480 assay, compound CC(C)=CCC[C@@H](C)[C@H]1CC[C@@]2(C)C3=C(CC[C@]12C)[C@@]1(C)CC[C@H](O)C(C)(C)[C@@H]1CC3 , cell viability = 0.994

Lab entry: SW480 assay, compound Oc1cccc(O)c1 , cell viability = 1.01
